# Test system: MOLM-13 cells (human acute myeloid leukemia cells)
# testDetails: MOLM-13 Cellular Assay
# Type: cell-based
# condition: Homo sapiens, MOLM-13, 72 h, 72 hours exposure, cell viability by CellTiter-Glo
// NB: equality with 2 nM counts as False; only IC50 strictly below is True

Qu. Item "CCn1c(CO)nn(-c2cc3c(C(C)C)cn(-c4ncncc4C)c(=O)c3cc2F)c1=O" : IC50 beneath 2 nM, strictly?
Ans. False

Qu. Dear reviewer, please state whether "CCn1c(CO)nn(-c2cc3c(C(C)C)cn(-c4c(F)cccc4Cl)c(=O)c3cc2F)c1=O" has IC50 strictly beneath 2 nM.
Ans. True

Qu. Hello, I'm reviewing records and need to know if IC50 of "C=C(C)c1cn(-c2cc(C)ccc2C)c(=O)c2cc(F)c(-n3nc(CO)n(CC)c3=O)cc12" is below 2 nM. Could you check?
Ans. True

Qu. Could you please tell me whether IC50 recorded for "C=C(C)c1cn(-c2cccc(F)c2)c(=O)c2ccc(-n3nc(CO)n(CC)c3=O)cc12" is less than 2 nM?
Ans. False

Qu. Identify whether the molecule "C=C(C)c1cn(-c2ccccc2F)c(=O)c2cc(F)c(-n3nc(CO)n(CC)c3=O)cc12" records IC50 below 2 nM.
Ans. True

Qu. Hi there! Is IC50 for "C=C(C)c1cn(-c2c(F)cccc2Cl)c(=O)c2ccc(-n3nc(CO)n(CC)c3=O)cc12" below 2 nM, do you know?
Ans. True

Qu. Regarding "CCn1c(CO)nn(-c2ccc3c(=O)n(-c4ccccc4Cl)nc(C(C)C)c3c2)c1=O" , kindly confirm whether its IC50 is beneath 2 nM.
Ans. False

Qu. # TODO verify IC50 < 2 nM strictly for this molecule: "CCn1c(CO)nn(-c2ccc3c(=O)n(-c4c(F)cccc4Cl)ccc3c2)c1=O"
Ans. False

Qu. # check: IC50 < 2 nM for "CCn1c(CO)nn(-c2cc3c(C(C)C)cn(-c4nc(C)ccc4Cl)c(=O)c3cc2F)c1=O"
Ans. False

Qu. Does "CCn1c(CO)nn(-c2ccc3c(=O)n(-c4ccccc4C)cc(N(C)C)c3c2)c1=O" have IC50 strictly under 2 nM?
Ans. False

Qu. In plain terms, does "CCn1c(CO)nn(-c2nc3c([C@@H](C)C(F)(F)F)cn(-c4ccccc4C)c(=O)c3cc2F)c1=O" come in under 2 nM for IC50?
Ans. True
